System: UniProt:P09874
Sequence (P09874 whole entry): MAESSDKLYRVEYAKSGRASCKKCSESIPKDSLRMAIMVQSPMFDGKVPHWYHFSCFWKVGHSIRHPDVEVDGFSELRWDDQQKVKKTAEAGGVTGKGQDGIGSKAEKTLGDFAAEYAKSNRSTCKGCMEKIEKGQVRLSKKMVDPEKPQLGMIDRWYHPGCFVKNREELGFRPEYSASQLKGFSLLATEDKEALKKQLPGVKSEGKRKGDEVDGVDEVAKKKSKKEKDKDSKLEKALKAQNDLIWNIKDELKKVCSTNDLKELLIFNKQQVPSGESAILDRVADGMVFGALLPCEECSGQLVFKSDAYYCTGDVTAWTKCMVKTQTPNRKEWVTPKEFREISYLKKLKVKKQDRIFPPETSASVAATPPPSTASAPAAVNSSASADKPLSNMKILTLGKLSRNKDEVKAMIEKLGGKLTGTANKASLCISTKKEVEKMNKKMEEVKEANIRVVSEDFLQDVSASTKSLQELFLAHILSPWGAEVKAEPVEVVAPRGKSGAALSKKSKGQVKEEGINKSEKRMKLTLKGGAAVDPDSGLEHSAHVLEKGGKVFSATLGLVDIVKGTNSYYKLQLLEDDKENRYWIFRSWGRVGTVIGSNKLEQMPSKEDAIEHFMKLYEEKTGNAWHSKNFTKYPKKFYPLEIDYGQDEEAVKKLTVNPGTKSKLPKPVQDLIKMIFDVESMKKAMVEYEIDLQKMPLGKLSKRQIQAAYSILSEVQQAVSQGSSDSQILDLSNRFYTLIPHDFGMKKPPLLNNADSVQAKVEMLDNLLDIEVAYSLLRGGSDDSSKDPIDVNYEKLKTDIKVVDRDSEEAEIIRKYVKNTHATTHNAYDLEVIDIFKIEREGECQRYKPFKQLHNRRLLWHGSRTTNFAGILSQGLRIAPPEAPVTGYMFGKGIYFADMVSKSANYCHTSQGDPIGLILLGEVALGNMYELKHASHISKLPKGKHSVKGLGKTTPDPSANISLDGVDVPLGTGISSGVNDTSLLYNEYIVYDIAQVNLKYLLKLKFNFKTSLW
Measurement Description: Inhibition of PARP1 enzyme activity (ELISA, chemiluminescence)
Format: biochemical
Settings: ratio of PARP2 IC50 to PARP1 IC50
# Selectivity PARP2/PARP1 values compiled below
Field format: numeric only.

Reference set (2 entries):
Compound: CC#Cc1cc(CN2CCN(c3ccc(C(=O)NC)nc3F)CC2)cc2[nH]c(=O)c(C)nc12 [Example 7]
Result: 362.1

Compound: CNC(=O)c1ccc(N2CCN(Cc3cc(C#CC4CC4)c4nc(C)c(=O)[nH]c4c3F)CC2)c(F)n1 [Example 22]
Result: 1813.7

Field: next compound
Summary for this compound, CNC(=O)c1ccc(N2CCN(Cc3cc(OC4CCCCC4)c4nc(C)c(=O)[nH]c4c3)CC2)c(F)n1 [Example 72] : Selectivity PARP2/PARP1 is 756.9
